tested on: 565232-114-T-J1-PDC complex spheroid viability; assay: Anticancer human tumor 565232-114-T-J1-PDC patient-derived bladder carcinoma cell line growth inhibition [CLK]; settings: second compound 3.16 µM; first compound 3.16 µM; hits give low values;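 further: spheroids exposed to compounds for 7 days before readout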
Each entry falls in a class defined on viability, T/C; the bands are bottom = under 2%, middle = from 2% up to 20%, top = 20% and over

>>> class_assignment("CC1(C)CCC(CN2CCN(c3ccc(C(=O)NS(=O)(=O)c4ccc(NCC5CCOCC5)c([N+](=O)[O-])c4)c(Oc4cnc5[nH]ccc5c4)c3)CC2)=C(c2ccc(Cl)cc2)C1 + CNC(=O)c1ccc(Nc2nc(OC3CCCC3)c3c(-c4ccc5nc(C)oc5c4)c[nH]c3n2)c(OC)c1")
"top"
>>> class_assignment("Nc1ccccc1NC(=O)c1ccc(CNC(=O)OCc2cccnc2)cc1 + CNC(=O)c1ccc(Nc2nc(OC3CCCC3)c3c(-c4ccc5nc(C)oc5c4)c[nH]c3n2)c(OC)c1")
"middle"
>>> class_assignment("COc1ccc([C@@H](O)c2cc(-c3ncnc4cc(N5CCOCC5)ccc34)c(F)cc2Cl)nn1 + CN1CCN(c2cc(C(=O)Nc3cc4cc(-c5cnn(C)c5)ccc4cn3)ccn2)CC1")
"bottom"
>>> class_assignment("Nc1ccn(C2OC(CO)C(O)C2(F)F)c(=O)n1 (centres undefined) + CNC(=O)c1ccc(Nc2nc(OC3CCCC3)c3c(-c4ccc5nc(C)oc5c4)c[nH]c3n2)c(OC)c1")
"middle"

Next:
Looking at COc1ccc([C@@H](O)c2cc(-c3ncnc4cc(N5CCOCC5)ccc34)c(F)cc2Cl)nn1 + CNC(=O)c1ccc(Nc2nc(OC3CCCC3)c3c(-c4ccc5nc(C)oc5c4)c[nH]c3n2)c(OC)c1 , which class would you pick? middle
